Molecular target: human kappa opioid receptor (hKOR) (Homo sapiens, UniProt P41145)
Construct: expressed in transfected cells; host or cells: CHO cells
Sequence (P41145 whole entry): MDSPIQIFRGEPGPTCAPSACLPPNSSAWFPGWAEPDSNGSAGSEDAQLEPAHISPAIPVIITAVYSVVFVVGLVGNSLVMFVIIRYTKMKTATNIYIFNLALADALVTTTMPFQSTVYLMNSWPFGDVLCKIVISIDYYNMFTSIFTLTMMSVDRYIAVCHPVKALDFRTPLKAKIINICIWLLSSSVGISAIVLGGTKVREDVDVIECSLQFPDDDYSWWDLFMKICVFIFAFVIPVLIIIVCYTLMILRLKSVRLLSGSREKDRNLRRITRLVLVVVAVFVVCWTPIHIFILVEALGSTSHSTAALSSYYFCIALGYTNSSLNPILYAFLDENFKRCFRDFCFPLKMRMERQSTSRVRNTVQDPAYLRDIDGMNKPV
Test: Kappa radioligand binding assay ([3H]diprenorphine, CHO cell membranes)
Conditions: radioligand binding, [3H]diprenorphine; read-out: hKOR Ki
pKi: −log10 of the molar value.
experimentalEndpoint: pKi

| molecule | modifierSign | observed |
| --- | --- | --- |
| COc1nn(C)cc1C1COCCN1Cc1ccc(Oc2ccc(C(N)=O)cc2F)cc1 (single isomer, unassigned) [enantiomer of Example 20] | = | 6.84 |
| Cc1nn(C)nc1C1CCCN1Cc1ccc(Oc2ccc(C(N)=O)cc2)cc1 (single isomer, unassigned) [enantiomer of Example 38] | < | 6.92 |
| COc1nn(C)cc1C1CCCN1Cc1ccc(Oc2ccc(C(N)=O)cc2)c(F)c1 (single isomer, unassigned) [enantiomer of Example 32] | = | 9.20 |
